Kindly state CRF2R Emax for each of the entries shown.
Target: T1, CRF2R
T1 sequence (Q13324 whole entry, species assumed, looked up): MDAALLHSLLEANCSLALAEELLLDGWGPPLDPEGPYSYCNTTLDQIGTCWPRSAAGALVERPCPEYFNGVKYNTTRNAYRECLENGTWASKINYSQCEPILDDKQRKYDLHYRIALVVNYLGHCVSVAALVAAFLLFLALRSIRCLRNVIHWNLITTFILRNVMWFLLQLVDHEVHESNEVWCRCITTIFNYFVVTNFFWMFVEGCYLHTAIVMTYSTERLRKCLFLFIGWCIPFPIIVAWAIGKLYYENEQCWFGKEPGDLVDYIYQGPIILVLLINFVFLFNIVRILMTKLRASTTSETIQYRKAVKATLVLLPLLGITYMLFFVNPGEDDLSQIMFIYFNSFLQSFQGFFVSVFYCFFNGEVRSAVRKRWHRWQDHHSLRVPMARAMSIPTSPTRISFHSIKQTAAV
Assay: cell-based or functional assay
Ends that are not written are not given here.
Numbers only, in %.

Recorded results for 2 binders are shown here.
• ZGPPISIDLPAHLLRKMIEIEKQEKEKQQAANNRLLLDTI (C-terminal amide) [SEQ ID NO 206] = 97
• ZGPPISIDLPTHLLRKMIEIEKQEKEKQQAANNRLLLDTI (C-terminal amide) [SEQ ID NO 74] = 100

Working through the 4 binders below one at a time, give CRF2R Emax for each.
1. DNPSLSIDLPLQLLRTLLELARTQSQRERAEQNAIIFASV-NH2 [SEQ ID NO 176]
2. IVLSLDVPIGLLQTLLELARTQSQRERAEQNRIIFDSV-NH2 [SEQ ID NO 160]
3. ZGPPISIDLPIYLLRKMIEIEKQEKEKQQAANNRLLLDTI (C-terminal amide) [SEQ ID NO 79]
4. ZGPPISIDLPIPLLRKMIEIEKQEKEKQQAANNRLLLDTI (C-terminal amide) [SEQ ID NO 26]

[reply]
90.2
87
100
86

Working through the 2 binders below one at a time, give CRF2R Emax for each.
1. ZGPPISIDLPFLLLRKMIEIEKQEKEKQQAANNRLLLDTI (C-terminal amide) [SEQ ID NO 191]
2. ZGPPISIDLPIGLLRKMIEIEKQEKEKQQAANNRLLLDTI (C-terminal amide) [SEQ ID NO 75]

[reply]
100
52

Working through the 4 binders below one at a time, give CRF2R Emax for each.
1. IVLSLDVPIGLLQILLEMARAEQLAQQAHSNRKLMEII-NH2 [SEQ ID NO 164]
2. IVLSLDVPIGLLQILLEQEKQEAAREQATTNARILARV-NH2 [SEQ ID NO 125]
3. ZGPPISIDLPWQLLRKMIEIEKQEKEKQQAANNRLLLDTI (C-terminal amide) [SEQ ID NO 210]
4. ZGPPISIDLPLVLLRKMIEIEKQEKEKQQAANNRLLLDTI (C-terminal amide) [SEQ ID NO 193]

[reply]
1: 92; 2: 99; 3: 97; 4: 97
